- assay summary: Plasma and brain concentrations of drugs at the end of the audiogenic seizure experiment (LC-MS)
- Format: in vivo, mouse
- condition details: DBA/2J, mouse, brain, oral, analyte COMPOUND 1; COMPOUND 1 30 mg/kg 3 h + LTG 10 mg/kg 1 h before stimulus, oral gavage; mean ± SEM; read-out: Brain concentration total

structure as smiles: N#Cc1ccc(Cn2ccc(NC(=O)Cc3ccc(C4(C(F)(F)F)CC4)cc3)n2)nc1
concentration at 3 h, ng/g: 4260

----------
- assay summary: Plasma and brain concentrations of drugs at the end of the audiogenic seizure experiment (LC-MS)
- Format: in vivo, mouse
- condition details: DBA/2J, mouse, plasma, oral, analyte COMPOUND 1; COMPOUND 1 10 mg/kg 3 h + LEV 1 mg/kg 1 h before stimulus, oral gavage; mean ± SEM; read-out: Plasma concentration total

structure as smiles: N#Cc1ccc(Cn2ccc(NC(=O)Cc3ccc(C4(C(F)(F)F)CC4)cc3)n2)nc1
concentration at 3 h (ng/mL): 1500

----------
- assay summary: Plasma and brain concentrations of drugs at the end of the audiogenic seizure experiment (LC-MS)
- Format: in vivo, mouse
- condition details: DBA/2J, mouse, plasma, oral, 100 mg/kg, analyte VPA; vehicle 3 h + VPA 100 mg/kg 1 h before stimulus, oral gavage; mean ± SEM; read-out: Plasma concentration total
quantity measured: concentration at 1 h (µg/mL)

structure as smiles: CCCC(CCC)C(=O)O
assay value: 53.7

----------
- assay summary: Plasma and brain concentrations of drugs at the end of the audiogenic seizure experiment (LC-MS)
- Format: in vivo, mouse
- condition details: DBA/2J, mouse, brain, oral, 1 mg/kg, analyte LEV; vehicle 3 h + LEV 1 mg/kg 1 h before stimulus, oral gavage; mean ± SEM; read-out: Brain concentration total
quantity measured: concentration at 1 h (ng/g)

compound: CC[C@@H](C(N)=O)N1CCCC1=O [LEV, (S)-2-(2-oxopyrrolidin-1-yl)butanamide]
quantity unit: ng/g
assay value: 224

----------
- assay summary: Plasma and brain concentrations of drugs at the end of the audiogenic seizure experiment (LC-MS)
- Format: in vivo, mouse
- condition details: DBA/2J, mouse, plasma, oral, analyte COMPOUND 1; COMPOUND 1 10 mg/kg 3 h + LTG 10 mg/kg 1 h before stimulus, oral gavage; mean ± SEM; read-out: Plasma concentration total

structure as smiles: N#Cc1ccc(Cn2ccc(NC(=O)Cc3ccc(C4(C(F)(F)F)CC4)cc3)n2)nc1
concentration at 3 h, ng/mL: 1290

----------
- assay summary: Plasma and brain concentrations of drugs at the end of the audiogenic seizure experiment (LC-MS)
- Type: in vivo, mouse
- condition details: DBA/2J, mouse, plasma, oral, analyte COMPOUND 1; COMPOUND 1 10 mg/kg 3 h + VPA 100 mg/kg 1 h before stimulus, oral gavage; mean ± SEM; read-out: Plasma concentration total
quantity measured: concentration at 3 h (ng/mL)

structure as smiles: N#Cc1ccc(Cn2ccc(NC(=O)Cc3ccc(C4(C(F)(F)F)CC4)cc3)n2)nc1
assay value: 710

----------
- assay summary: Plasma and brain concentrations of drugs at the end of the audiogenic seizure experiment (LC-MS)
- Type: in vivo, mouse
- condition details: DBA/2J, mouse, brain, oral, analyte COMPOUND 1; COMPOUND 1 10 mg/kg 3 h + LTG 10 mg/kg 1 h before stimulus, oral gavage; mean ± SEM; read-out: Brain concentration total

structure as smiles: N#Cc1ccc(Cn2ccc(NC(=O)Cc3ccc(C4(C(F)(F)F)CC4)cc3)n2)nc1
concentration at 3 h [ng/g]: 1420

----------
- assay summary: Plasma and brain concentrations of drugs at the end of the audiogenic seizure experiment (LC-MS)
- Assay type: in vivo, mouse
- condition details: DBA/2J, mouse, plasma, oral, analyte COMPOUND 1; COMPOUND 1 10 mg/kg 3 h + LEV 3 mg/kg 1 h before stimulus, oral gavage; mean ± SEM; read-out: Plasma concentration total
- Procedure: Briefly, blood was sampled from the vena cava caudalis with a syringe pre-filled with EDTA (ethylenediamine tetraacetic acid) as anticoagulant and centrifuged to yield plasma (for 10 minutes, at 4° C. and 5000 rpm (rounds per minute)). Brain was sampled and homogenized into one volume of cold phosphate buffer (pH 7.4). Following extraction with methanol, concentrations of the compound in plasma and brain were determined using liquid chromatography coupled to mass spectrometry. […]
quantity measured: concentration at 3 h (ng/mL)

structure as smiles: N#Cc1ccc(Cn2ccc(NC(=O)Cc3ccc(C4(C(F)(F)F)CC4)cc3)n2)nc1
assay value: 1600

----------
- assay summary: Plasma and brain concentrations of drugs at the end of the audiogenic seizure experiment (LC-MS)
- Format: in vivo, mouse
- condition details: DBA/2J, mouse, plasma, po, 30 mg/kg, analyte COMPOUND 1; COMPOUND 1 30 mg/kg 3 h + vehicle 1 h before stimulus, oral gavage; mean ± SEM; read-out: Plasma concentration total

structure as smiles: N#Cc1ccc(Cn2ccc(NC(=O)Cc3ccc(C4(C(F)(F)F)CC4)cc3)n2)nc1
quantity unit: ng/mL
concentration at 3 h: 3090

----------
- assay summary: Plasma and brain concentrations of drugs at the end of the audiogenic seizure experiment (LC-MS)
- Format: in vivo, mouse
- condition details: DBA/2J, mouse, brain, oral, analyte COMPOUND 1; COMPOUND 1 30 mg/kg 3 h + VPA 30 mg/kg 1 h before stimulus, oral gavage; mean ± SEM; read-out: Brain concentration total

structure as smiles: N#Cc1ccc(Cn2ccc(NC(=O)Cc3ccc(C4(C(F)(F)F)CC4)cc3)n2)nc1
concentration at 3 h [ng/g]: 5100

----------
- assay summary: Plasma and brain concentrations of drugs at the end of the audiogenic seizure experiment (LC-MS)
- Format: in vivo, mouse
- condition details: DBA/2J, mouse, plasma, oral, analyte LEV; COMPOUND 1 10 mg/kg 3 h + LEV 50 mg/kg 1 h before stimulus, oral gavage; mean ± SEM; read-out: Plasma concentration total

molecule: CC[C@@H](C(N)=O)N1CCCC1=O [LEV, (S)-2-(2-oxopyrrolidin-1-yl)butanamide]
concentration at 1 h: 27000 ng/mL
